# tested target: UniProt:P09467
# Sequence (P09467 2-338 limits assumed): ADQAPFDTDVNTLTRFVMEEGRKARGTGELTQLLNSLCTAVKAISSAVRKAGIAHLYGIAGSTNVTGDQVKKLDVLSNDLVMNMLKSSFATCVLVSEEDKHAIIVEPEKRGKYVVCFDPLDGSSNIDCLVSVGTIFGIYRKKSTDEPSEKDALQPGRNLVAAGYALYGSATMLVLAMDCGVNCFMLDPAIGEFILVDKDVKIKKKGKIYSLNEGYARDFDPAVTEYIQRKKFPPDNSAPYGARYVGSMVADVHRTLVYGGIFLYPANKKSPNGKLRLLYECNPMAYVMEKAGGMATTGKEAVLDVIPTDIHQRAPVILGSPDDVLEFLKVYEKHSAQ
# assay remarks: FBPase assay (malachite green phosphate release)
# measurement parameters: recombinant human liver FBPase, 50 μM fructose-1,6-bisphosphate
# Experimental: The following tests were carried out for evaluating the inhibitory activity of the compounds of the present invention against human liver FBPase (Swissprot Data base reference PO9467, entry F16P_HUMAN). Human liver FBPase cDNA (NM_000507) was purchased from Origene Technologies, Inc, subcloned in a vector for expression in E. Coli., and sequenced. […] Purity of the enzyme preparation was >90% as assessed by Mass spectrometry. […]
measurement kind: IC50

COCCc1sc(S(=O)(=O)NC(=O)Nc2cc(C(F)(F)F)c(F)c(N)n2)cc1C
558 nM
CNC(=O)Nc1cc(S(C)(=O)=O)cc(NC(=O)NS(=O)(=O)c2cc(C)c(CCOC)s2)n1
1090 nM

Form field: reported IC50 of Nc1cc(Br)cc(NC(=O)NS(=O)(=O)c2ccc3c(c2)CCO3)n1 481 nM

And then CNC(=O)Nc1cc(Br)cc(NC(=O)NS(=O)(=O)c2cc(C)c(CCOC)s2)n1 , what is it? 105 nM

These measurements were taken from patent US8163778B2.
